Numbers sourced from patent US20140112930A1.

- tested.system: T1, Dimeric Monkey Ang-2FD conjugated to human IgG1 (monkey (Macca fascicularis); human)
- T1 construct: also called Monkey Ang-2FD-hFc
- T1 sequence (chain, as listed by the source limits assumed): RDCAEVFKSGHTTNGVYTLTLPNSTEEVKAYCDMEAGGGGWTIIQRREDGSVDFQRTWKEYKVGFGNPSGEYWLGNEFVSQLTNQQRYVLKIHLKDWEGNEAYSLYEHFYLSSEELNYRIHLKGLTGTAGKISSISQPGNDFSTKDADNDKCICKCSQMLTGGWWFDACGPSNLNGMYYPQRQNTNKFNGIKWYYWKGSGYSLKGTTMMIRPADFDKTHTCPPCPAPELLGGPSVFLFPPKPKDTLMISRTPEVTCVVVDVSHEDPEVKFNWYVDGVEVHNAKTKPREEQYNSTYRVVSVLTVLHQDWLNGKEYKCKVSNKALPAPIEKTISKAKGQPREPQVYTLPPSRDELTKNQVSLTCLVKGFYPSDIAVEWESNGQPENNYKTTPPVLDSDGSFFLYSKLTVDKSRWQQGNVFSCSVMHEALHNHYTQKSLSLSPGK
- protocol: SPR, captured Ab, RT
Reported T1/2 values are given for each entry in this list.
Only the number, expressed in h, is required.

// solved cases for T1/2 follow
>  <binder>
H1H704P (antibody, V domains shown) VH: QVQLVESGGDVVQPGRSLRLSCAASGFTFSSYGMHWVRQAPGKGLEWVAIIWYDGSNKYYADSVKGRFTISRDNSKNTLYLQMNSLRVEDTAVYSCARDFSISSRHFDYWGQGTLVTVSS VL: DIQMTQSPSSLSASVGDRVTITCRASQAINNYLAWFQQKPGKAPKSLIYATSNLQSGVPSQFSGSGSGTDYTLTISSLQPEDFATYYCQQYYIYPITFGQGTRLEIK

>  <endpoint.value>
0.558

$$$$
>  <binder>
H2M744N (antibody, V domains shown) VH: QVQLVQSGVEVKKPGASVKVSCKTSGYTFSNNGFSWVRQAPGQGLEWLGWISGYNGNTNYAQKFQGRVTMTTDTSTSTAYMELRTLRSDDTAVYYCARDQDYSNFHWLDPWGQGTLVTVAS VL: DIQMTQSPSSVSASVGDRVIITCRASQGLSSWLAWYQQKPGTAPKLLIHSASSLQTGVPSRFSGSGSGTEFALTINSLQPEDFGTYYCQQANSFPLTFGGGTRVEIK

>  <endpoint.value>
4.69

$$$$
>  <binder>
H1H693P (antibody, V domains shown) VH: EVQLVESGGGLVQPGESLRLSCAASGFTFSSYAMSWVRQGPGKGLEWVSSISGSGGTTYYADSVEGRFTISRDNSKNTLYLHMNSLRAEDTAVYYCAKDFLDYSTYLAFDLWGQGTMVTVSS VL: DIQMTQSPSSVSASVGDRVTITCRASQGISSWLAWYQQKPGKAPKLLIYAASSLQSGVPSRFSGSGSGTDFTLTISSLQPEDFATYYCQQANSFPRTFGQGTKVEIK

>  <endpoint.value>
0.293

$$$$

Moving on to the next binder.
Ask: Look at this binder and give its reported T1/2. H1H749N (antibody, V domains shown) VH: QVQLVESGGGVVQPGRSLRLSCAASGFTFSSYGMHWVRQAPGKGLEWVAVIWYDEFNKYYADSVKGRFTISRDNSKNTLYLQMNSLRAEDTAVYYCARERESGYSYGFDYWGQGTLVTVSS VL: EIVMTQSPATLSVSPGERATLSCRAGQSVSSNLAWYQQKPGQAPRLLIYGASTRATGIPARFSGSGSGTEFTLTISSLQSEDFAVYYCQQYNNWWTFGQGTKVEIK
Reply: 2.38
